Molecular target: T1, hPRLR.mFc (soluble dimeric human PRLR) (human)
T1 construct: dimeric PRLR construct
T1 chain: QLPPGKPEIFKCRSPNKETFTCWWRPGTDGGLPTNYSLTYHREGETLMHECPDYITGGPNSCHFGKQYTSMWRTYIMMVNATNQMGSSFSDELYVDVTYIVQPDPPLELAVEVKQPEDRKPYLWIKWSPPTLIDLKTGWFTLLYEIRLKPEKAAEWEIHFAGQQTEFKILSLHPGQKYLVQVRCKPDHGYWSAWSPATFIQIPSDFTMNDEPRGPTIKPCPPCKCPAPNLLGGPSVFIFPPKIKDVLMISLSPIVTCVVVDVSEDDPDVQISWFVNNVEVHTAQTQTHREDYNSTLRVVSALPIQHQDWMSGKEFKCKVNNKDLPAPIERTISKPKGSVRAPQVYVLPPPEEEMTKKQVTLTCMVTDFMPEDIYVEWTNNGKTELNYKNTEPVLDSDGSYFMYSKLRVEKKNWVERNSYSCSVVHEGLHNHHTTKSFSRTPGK
Test: SPR (Biacore), antibody capture, 37 C
In this section, each of the binders is paired with its reported T 1/2.
Provide the reading as a plain figure in h.

Reference set (2 entries):
H1H6785P (antibody, human IgG1, V domains shown, human IgG1 Fc (H1H)) VH: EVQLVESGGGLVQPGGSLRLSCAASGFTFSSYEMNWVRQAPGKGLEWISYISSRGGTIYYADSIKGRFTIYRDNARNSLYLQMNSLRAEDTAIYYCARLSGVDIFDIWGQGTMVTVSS VL: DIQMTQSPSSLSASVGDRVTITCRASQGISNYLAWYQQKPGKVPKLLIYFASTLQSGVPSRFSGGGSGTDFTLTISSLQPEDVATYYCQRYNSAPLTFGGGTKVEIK | 1.65
H1H6804P (antibody, human IgG1, V domains shown, human IgG1 Fc (H1H)) VH: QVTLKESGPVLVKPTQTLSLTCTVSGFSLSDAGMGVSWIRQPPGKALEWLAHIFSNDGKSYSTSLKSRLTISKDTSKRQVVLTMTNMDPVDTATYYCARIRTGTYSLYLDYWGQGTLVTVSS VL: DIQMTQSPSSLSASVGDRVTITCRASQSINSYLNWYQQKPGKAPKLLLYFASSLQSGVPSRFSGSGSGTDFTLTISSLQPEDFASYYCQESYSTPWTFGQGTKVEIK | 0.933

Give the measured T 1/2 of H1H6762P (antibody, human IgG1, V domains shown, human IgG1 Fc (H1H)) VH: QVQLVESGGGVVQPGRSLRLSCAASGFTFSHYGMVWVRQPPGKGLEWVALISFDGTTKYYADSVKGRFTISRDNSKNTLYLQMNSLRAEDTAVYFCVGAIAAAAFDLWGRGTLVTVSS VL: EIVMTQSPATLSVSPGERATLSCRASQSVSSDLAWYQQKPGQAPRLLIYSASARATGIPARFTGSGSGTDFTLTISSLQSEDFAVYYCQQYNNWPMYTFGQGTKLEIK .
1.87
